The entries that follow carry pIC50 values tested on Cytochrome P450 2D6 (Homo sapiens, UniProt P10635), drawn from several published reports.
Sequence (P10635 whole entry): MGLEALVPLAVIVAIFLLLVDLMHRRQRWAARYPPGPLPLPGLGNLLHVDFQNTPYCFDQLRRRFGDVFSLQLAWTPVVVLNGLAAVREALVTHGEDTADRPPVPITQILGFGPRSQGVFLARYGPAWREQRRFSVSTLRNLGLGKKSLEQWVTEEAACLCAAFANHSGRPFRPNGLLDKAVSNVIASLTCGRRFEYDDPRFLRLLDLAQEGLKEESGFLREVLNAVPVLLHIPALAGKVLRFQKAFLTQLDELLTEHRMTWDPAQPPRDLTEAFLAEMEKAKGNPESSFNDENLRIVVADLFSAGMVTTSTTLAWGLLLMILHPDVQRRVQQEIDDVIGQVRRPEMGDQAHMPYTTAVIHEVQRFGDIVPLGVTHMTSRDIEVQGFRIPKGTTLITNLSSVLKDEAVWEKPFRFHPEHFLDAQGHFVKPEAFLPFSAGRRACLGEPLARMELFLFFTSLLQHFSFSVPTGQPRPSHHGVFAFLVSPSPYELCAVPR
pIC50: −log10 of the molar value.
measured_parameter: pIC50

INSERT INTO assay_data (compound, rel, measured_value) VALUES
  ('N#Cc1ccc(N[C@H]2CCN(C(=O)O[C@H]3C4CC5CC3C[C@](C(N)=O)(C5)C4)C2)nc1', '=', 4.78),
  ('Cl.N[C@@H]1CCC=C(c2ccc(F)cc2)[C@H]1CNc1cc(F)c(S(=O)(=O)Nc2cscn2)cc1Cl', '=', 5.52),
  ('COc1ccc(/C=C/C(=O)c2cccnc2)cc1OC', '=', 5.96),
  ('OC(Cn1cnnn1)(c1ccc(F)cc1F)C(F)(F)c1ccc(-c2ccc(OCC(F)(F)F)cc2)cn1 (racemic)', '=', 5.06),
  ('Cc1ccc2c(c1)C(=O)N(c1ccc(NC(=O)c3occc3C)c(F)c1)C2=O', '<', 4.52),
  ('CC1CN(c2cccnc2)C(=O)c2ccc(Cl)cc21 (stereo not given)', '<', 4.30),
  ('O=C(Nc1ccc(F)cc1)N1N=C(c2ccncc2)CC1c1ccc(F)cc1 (stereo not given)', '=', 4.36),
  ('N#Cc1cccnc1N[C@@H]1CCN(C(=O)O[C@H]2C3CC4CC2C[C@](C(N)=O)(C4)C3)C1', '<', 4.52),
  ('Nc1cc(CN2CCC(F)(C(=O)N3CCC(N4CCNc5ccccc5C4)CC3)CC2)ccn1', '<', 4.52),
  ('Oc1cccc(-c2ccc3c(-c4ccccc4)c(O)ccc3c2)c1', '=', 4.81);

* * *

The entries that follow carry pIC50 values tested on Cytochrome P450 2D6 (Homo sapiens, UniProt P10635), drawn from several published reports.
pIC50: −log10 of the molar value.
measured_parameter: pIC50

INSERT INTO measurements (compound_smiles, experimental_target, rel, measured_value) VALUES
  ('CC(C)NC(=O)OCc1c(COC(=O)NC(C)C)c(-c2ccc(Cl)c(Cl)c2)n2c1CCC2', 'Cytochrome P450 2D6 (Homo sapiens, UniProt P10635)', '=', 4.96),
  ('CC(=O)O[C@H]1[C@H](Oc2c(-c3ccc(O)cc3)oc3cc(O)cc(O)c3c2=O)O[C@@H](C)[C@H](O)[C@H]1O', 'Cytochrome P450 2D6 (Homo sapiens, UniProt P10635)', '<', 4.00),
  ('COCCn1c(=O)n(C2CCN(C(=O)C3CCN(Cc4ccncc4)CC3)CC2)c2ccccc21', 'Cytochrome P450 2D6 (Homo sapiens, UniProt P10635)', '<', 4.70),
  ('COCc1c(Cl)ccc2c1CC[C@H]2c1ncc[nH]1', 'Cytochrome P450 2D6 (Homo sapiens, UniProt P10635)', '=', 5.18),
  ('CN1CC(Cl)=C(c2cn(S(=O)(=O)c3ccccc3)c3ccccc23)C1', 'Cytochrome P450 2D6 (Homo sapiens, UniProt P10635)', '=', 4.68);

* * *

pIC50: −log10 of the molar value.
The entries that follow carry pIC50 values tested on Cytochrome P450 2D6 (Homo sapiens, UniProt P10635), drawn from several published reports.
measured_parameter: pIC50

INSERT INTO measurements (compound, experimental_target, measured_value) VALUES
  ('COc1cccc(CN(CCN(C)C)C(=O)Nc2ccc(-c3cn[nH]c3)cc2)c1', 'Cytochrome P450 2D6 (Homo sapiens, UniProt P10635)', 5.52),
  ('O=C(NOCCO)c1oc2ccncc2c1Nc1ccc(I)cc1F', 'Cytochrome P450 2D6 (Homo sapiens, UniProt P10635)', '< 5.00'),
  ('O=S(=O)(CC[C@@H]1OCC[C@@]2(S(=O)(=O)c3ccc(Cl)cc3)c3c(F)ccc(F)c3OC[C@@H]12)CC1=NCCN1', 'Cytochrome P450 2D6 (Homo sapiens, UniProt P10635)', '< 4.70'),
  ('O=S(=O)(CC[C@@H]1OCC[C@@]2(S(=O)(=O)c3ccc(Cl)cc3)c3c(F)ccc(F)c3OC[C@@H]12)CCN1CCNCC1', 'Cytochrome P450 2D6 (Homo sapiens, UniProt P10635)', '< 4.70'),
  ('CN1CCN(CC(=O)Nc2ccc(-c3cccc4c(=O)cc(N5CCOCC5)oc34)c3sc4ccccc4c23)CC1', 'Cytochrome P450 2D6 (Homo sapiens, UniProt P10635)', '< 5.00'),
  ('Nc1nc2c(C(=O)NCc3ccc(Cl)c(Cl)c3)cc(O)c(O)c2s1', 'Cytochrome P450 2D6 (Homo sapiens, UniProt P10635)', '> 5.00'),
  ('Cc1nc(-c2ccc(F)cc2F)n(C)c1CC(=O)NCc1ccc(F)cc1Cl', 'Cytochrome P450 2D6 (Homo sapiens, UniProt P10635)', '< 5.00'),
  ('CCOC(=O)C1=C(CN2CCN3C(=O)N(CC(C)(C)C(=O)O)C[C@@H]3C2)NC(c2nccs2)=N[C@H]1c1cccc(F)c1C', 'Cytochrome P450 2D6 (Homo sapiens, UniProt P10635)', '< 4.30'),
  ('Cc1ccccc1[C@H]1[C@@H]2CN(C3=NC(=O)CO3)C[C@H]2CC[C@@H]1O[C@H](CO)c1cc(C(F)(F)F)cc(C(F)(F)F)c1', 'Cytochrome P450 2D6 (Homo sapiens, UniProt P10635)', 4.21),
  ('COC(=O)N(Cc1ccccc1)Cc1cc(C(F)(F)F)ccc1-c1cc(CC(=O)O)ccc1OC', 'Cytochrome P450 2D6 (Homo sapiens, UniProt P10635)', '< 4.52'),
  ('Cc1cc(-c2c(Cl)cccc2Cl)cc2nnc(Nc3ccc(OCCN4CCCC4)cc3)nc12', 'Cytochrome P450 2D6 (Homo sapiens, UniProt P10635)', 4.48),
  ('Cc1cc(C(=O)N[C@H]2CC[C@@H](NC(=O)c3cc(F)cnc3Oc3cccc(-c4ccc(CCCN5C[C@@H](C)N[C@@H](C)C5)cc4)c3)CC2)nn1C', 'Cytochrome P450 2D6 (Homo sapiens, UniProt P10635)', '< 6.00'),
  ('O=C(O)c1ccc(-n2cc(C(=O)c3c(Cl)cccc3Cl)c3cccnc32)c(F)c1', 'Cytochrome P450 2D6 (Homo sapiens, UniProt P10635)', '< 5.00'),
  ('O=C(Nc1nc(C(F)(F)F)co1)C1c2ccccc2Oc2ccccc21', 'Cytochrome P450 2D6 (Homo sapiens, UniProt P10635)', '< 4.52'),
  ('O/N=C/c1ccc(-c2cccnc2)s1', 'Cytochrome P450 2D6 (Homo sapiens, UniProt P10635)', 3.72),
  ('CCN(CC)CCOc1ccc2cc1COCC=CCOCc1cccc(c1)-c1ccnc(n1)N2 (mixture of isomers)', 'Cytochrome P450 2D6 (Homo sapiens, UniProt P10635)', '< 5.00'),
  ('Cc1cc2c(F)c(Oc3ncnn4cc(OC[C@@H](C)OC(=O)C(C)N)c(C)c34)ccc2[nH]1 (single isomer, unassigned; 8)', 'Cytochrome P450 2D6 (Homo sapiens, UniProt P10635)', 4.62),
  ('Nc1cc(CN2CCC(C(=O)N3CCC(n4c(=O)n(CCCC(F)(F)F)c5ccccc54)CC3)CC2)ccn1', 'Cytochrome P450 2D6 (Homo sapiens, UniProt P10635)', '< 4.52'),
  ('CCCCCCCCCCCc1cccn1C1c2ccccc2CCc2ccccc21', 'Cytochrome P450 2D6 (Homo sapiens, UniProt P10635)', 5.24),
  ('O=C(Cc1ccc(-n2nc(C(F)(F)F)c3c2CCCC3)cc1)NC1CCCC1', 'Cytochrome P450 2D6 (Homo sapiens, UniProt P10635)', 5.10),
  ('CNC(=O)N1CCN(Cc2ccnc(Nc3ncc(C#N)s3)c2)CC1', 'Cytochrome P450 2D6 (Homo sapiens, UniProt P10635)', '< 4.30'),
  ('CCn1c([C@@H](C)NS(=O)(=O)c2ccc(C#N)nc2)nc2cnc(C3CC3)cc21', 'Cytochrome P450 2D6 (Homo sapiens, UniProt P10635)', '< 4.70'),
  ('CC(C)(O)c1ccccc1-c1ccc2[nH]c(/C=C/c3ccc(C(F)(F)F)cc3)nc2c1', 'Cytochrome P450 2D6 (Homo sapiens, UniProt P10635)', '< 4.60'),
  ('CCn1c([C@@H](C)NS(=O)(=O)c2ccc(C#N)nc2)nc2cnc(C(F)(F)F)cc21', 'Cytochrome P450 2D6 (Homo sapiens, UniProt P10635)', '< 4.70'),
  ('CN[C@H]1CCc2ccccc2[C@H]1c1ccc(Cl)c(Cl)c1', 'Cytochrome P450 2D6 (Homo sapiens, UniProt P10635)', 6.31),
  ('COc1cc(Nc2ncc(-c3ccc4ccccc4n3)c(N[C@@H]3C[C@H](CO)[C@@H](O)[C@H]3O)n2)ccn1', 'Cytochrome P450 2D6 (Homo sapiens, UniProt P10635)', '< 4.30'),
  ('COc1cccc(CN(C)C(=O)Nc2ccc(-c3cn[nH]c3)cc2)c1', 'Cytochrome P450 2D6 (Homo sapiens, UniProt P10635)', '< 4.00'),
  ('CC(C)(C)C(=O)N1CCC(c2ccc(C(=O)NC(=N)N)cc2C(F)(F)F)CC1', 'Cytochrome P450 2D6 (Homo sapiens, UniProt P10635)', '< 4.52'),
  ('COCC(=O)N1CCC(c2ccc(C(=O)NC(=N)N)cc2C(F)(F)F)CC1', 'Cytochrome P450 2D6 (Homo sapiens, UniProt P10635)', '< 4.52'),
  ('FC(F)Oc1cc(-n2cc(Cn3ccnc3)nn2)ccc1Cl', 'Cytochrome P450 2D6 (Homo sapiens, UniProt P10635)', 7.52),
  ('COc1cc(N2Cc3cn(-c4cccc(S(C)(=O)=O)c4)nc3[C@H]2C(C)(C)C)ccn1', 'Cytochrome P450 2D6 (Homo sapiens, UniProt P10635)', 5.11),
  ('O=C1COc2ccc(CN3c4ccccc4COc4cc(F)ccc43)cc2N1', 'Cytochrome P450 2D6 (Homo sapiens, UniProt P10635)', 4.79),
  ('CCC1(CC)C[C@@H](NC(=O)Nc2cccc3cnc(C)cc23)c2cccc(F)c2O1', 'Cytochrome P450 2D6 (Homo sapiens, UniProt P10635)', '< 4.70'),
  ('COc1cc(C[C@H]2COC(O)[C@@H]2Cc2cc(OC)c(OC)c(OC)c2)cc(OC)c1OC (some centres not stated)', 'Cytochrome P450 2D6 (Homo sapiens, UniProt P10635)', '< 4.00'),
  ('COc1cc2nccc(Oc3ccc4c(C(=O)Nc5ccncc5)cccc4c3)c2cc1OC', 'Cytochrome P450 2D6 (Homo sapiens, UniProt P10635)', 6.15),
  ('O=S(=O)(Nc1ccc(-c2cnco2)cc1)c1cc(Cl)cc(Cl)c1', 'Cytochrome P450 2D6 (Homo sapiens, UniProt P10635)', 5.54),
  ('Cc1ccc2c(NC3CC3)noc2c1-c1ccc2c(NC(C)C)nncc2c1', 'Cytochrome P450 2D6 (Homo sapiens, UniProt P10635)', '< 4.60');
